Just for reference, PubChem BioAssay is where these values come from.

Below, each entry is listed alongside its reported composite z-score.
target: Focal adhesion kinase 1 (Homo sapiens) (UniProt Q05397); assay: small-molecule microarray binders of FAK, primary screen, biochemical, 635/667 nm fluorescence, BSA, DTT (AID 1130); settings: PTK2 binding, 635 nm fluorescence, higher = more signal;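 also: composite of spot emission at 667 nm and signal to noise over triplicate slides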
Sequence (Q05397 whole entry, looked up): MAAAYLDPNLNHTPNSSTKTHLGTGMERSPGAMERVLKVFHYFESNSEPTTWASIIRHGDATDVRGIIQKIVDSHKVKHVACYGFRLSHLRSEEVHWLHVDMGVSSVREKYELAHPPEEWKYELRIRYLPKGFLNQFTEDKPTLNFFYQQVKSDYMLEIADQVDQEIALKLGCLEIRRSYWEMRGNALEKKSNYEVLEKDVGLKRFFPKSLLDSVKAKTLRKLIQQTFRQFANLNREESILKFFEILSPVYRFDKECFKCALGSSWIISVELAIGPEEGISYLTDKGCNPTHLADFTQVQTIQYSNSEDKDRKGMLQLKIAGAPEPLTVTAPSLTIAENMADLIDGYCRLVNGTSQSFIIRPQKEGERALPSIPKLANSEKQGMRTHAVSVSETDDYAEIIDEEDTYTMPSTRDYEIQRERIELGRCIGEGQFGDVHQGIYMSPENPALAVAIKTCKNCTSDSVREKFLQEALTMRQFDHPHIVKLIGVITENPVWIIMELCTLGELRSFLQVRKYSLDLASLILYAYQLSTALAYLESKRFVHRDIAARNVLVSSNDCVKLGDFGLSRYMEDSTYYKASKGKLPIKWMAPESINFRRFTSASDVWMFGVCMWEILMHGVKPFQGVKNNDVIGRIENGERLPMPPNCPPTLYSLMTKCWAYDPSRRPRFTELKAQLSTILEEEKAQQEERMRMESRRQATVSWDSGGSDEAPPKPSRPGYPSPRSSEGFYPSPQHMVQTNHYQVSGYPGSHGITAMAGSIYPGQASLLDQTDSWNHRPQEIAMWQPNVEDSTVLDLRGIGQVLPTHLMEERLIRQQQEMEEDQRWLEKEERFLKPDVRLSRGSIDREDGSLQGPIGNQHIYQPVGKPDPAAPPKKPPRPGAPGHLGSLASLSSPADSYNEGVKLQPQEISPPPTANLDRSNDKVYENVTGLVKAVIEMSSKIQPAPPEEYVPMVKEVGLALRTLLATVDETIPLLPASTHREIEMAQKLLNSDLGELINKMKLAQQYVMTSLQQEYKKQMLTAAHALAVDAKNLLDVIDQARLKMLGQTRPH
Output spec: single numeric token, no unit.

Use these answered entries as a reference point.
compound	measured.parameter	observed.measurement
CC(=O)OC[C@H]1O[C@H](CCON=C[C@@H](C)[C@H](OCc2ccccc2)C(C)C)C=C[C@@H]1OC(C)=O	composite z-score	-0.101
CC(=O)OC[C@H]1O[C@H](C#CCCCc2ccccc2)C=C[C@@H]1OC(C)=O	composite z-score	0.126
CC(C)CON=C1C[C@@H](O)[C@@H](O)[C@@H]2[C@@H]3C(=O)N(C[C@@H]4CCCO4)C(=O)[C@@H]3CC[C@H]12	composite z-score	0.0201
CC(C)=NOCc1ccc(-c2cc(-c3ccccc3)no2)cc1	composite z-score	0.0171
N#Cc1ccc(NN2C(C(O)c3cc(C(F)(F)F)cc(C(F)(F)F)c3)C=CC3C(=O)N(c4ccccc4)C(=O)C32)cc1 (configuration not stated)	composite z-score	0.756

Lab note: CCc1cc2c(nc1CC)CCN(CCC(C)=NOC[C@@H](O)COCc1ccco1)C2 gave composite z-score of -0.439

Consider CO[C@@H]1COC(=O)CCC[C@@H](C)[C@H](OC)COC(=O)[C@H](Cc2ccccc2)NC(=O)CC=C[C@H]1C . Its measured composite z-score is -0.268

---

target: Calmodulin-1 (Homo sapiens) (UniProt P0DP23); assay: calcium-bound CALM1 binders on microarrays, profiling panel, artefact control for SMM control-protein annotation, biochemical, small-molecule microarray, Cy5-labelled CALM1, plus calcium (AID 1112); conditions: Cy5-CALM1 binding fluorescence, higher = more signal;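 also: score merges spot fluorescence with signal to noise from triplicate slides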
measured.parameter: composite z-score
Reply with just the number.

compound	tgt	composite z-score
CC(C)N1CC=CC23O[C@@H]4C=CCCOC(=O)C4[C@H]2C(=O)N(CCCCCCO)[C@@H]3C1=O (stereo partly specified)	Calmodulin-1 (Homo sapiens) (UniProt P0DP23)	0.749
CCOC(=O)CCN1C(=O)[C@H]2[C@H]3[C@H](O)[C@H](O)CC(=NOCc4ccccc4)[C@@H]3CC[C@H]2C1=O	Calmodulin-1 (Homo sapiens) (UniProt P0DP23)	-0.848
COC(=O)[C@H]1COC(c2ccc(OCCCO)cc2)=N1	Calmodulin-1 (Homo sapiens) (UniProt P0DP23)	0.662
CC(C)=NOCc1cccc(-c2cc(-c3ccccc3)no2)c1	Calmodulin-1 (Homo sapiens) (UniProt P0DP23)	-0.823
CCOC(=O)[C@H](Cc1ccccc1)NC(=O)CCC1CC(OC(=O)NCc2ccc3c(c2)OCO3)CC2(CCCC(COC(=O)NCc3cccc(C(F)(F)F)c3)O2)O1 (stereo partly specified)	Calmodulin-1 (Homo sapiens) (UniProt P0DP23)	-0.286
COC(=O)CC=C[C@@H](C)[C@@H](C=NO[C@H](C)c1cn([C@@H]2COC[C@H]2O)nn1)OC	Calmodulin-1 (Homo sapiens) (UniProt P0DP23)	-0.793
CCCC[C@H]1OB(O)C[C@H]2C1=C(C)C[C@H]1C(=O)N(C)C(=O)[C@H]12	Calmodulin-1 (Homo sapiens) (UniProt P0DP23)	0.06
C[C@H]1CC[C@@H](C(=O)O)N[C@@H]1c1ccc(C#CCN(C)C)cc1	Calmodulin-1 (Homo sapiens) (UniProt P0DP23)	-0.51

Item C[C@@H]1C=CCC(=O)OC[C@H](C)C(=O)N[C@@H](C)C(=O)OC1 ; assay system Calmodulin-1 (Homo sapiens) (UniProt P0DP23); composite z-score reported as -0.897

Reported Calmodulin-1 (Homo sapiens) (UniProt P0DP23) composite z-score for item CC(C)[Si]1(C(C)C)O[C@@H](c2ccccc2)c2cc(C3CC3)nc(-c3ccccc3)c21 was -0.239

Test item CCCC[C@@H]1C[C@H]1[C@@H](NS(=O)(=O)c1cccc2cccnc12)c1ccc(-c2ccccc2)cc1 ; Calmodulin-1 (Homo sapiens) (UniProt P0DP23); reported composite z-score was 1.23

The reported composite z-score value, Calmodulin-1 (Homo sapiens) (UniProt P0DP23), for C[C@H](c1ccccc1)N1C(=O)[C@H]2[C@H]3[C@H](O)[C@H](O)CC(=O)[C@@H]3CC[C@H]2C1=O reads -0.465

# CCCCCCc1nc(CCCc2cc3c(c(CCCCCC)n2)[Si](C(C)C)(C(C)C)O[C@H]3c2ccccc2)cc2c1[Si](C(C)C)(C(C)C)O[C@H]2c1ccccc1 with Calmodulin-1 (Homo sapiens) (UniProt P0DP23): composite z-score is -0.021

The reported composite z-score value, Calmodulin-1 (Homo sapiens) (UniProt P0DP23), for C[C@@H](c1ccccc1)N1C(=O)[C@H]2[C@H]3[C@H](O)[C@H](O)CC(=NOC[C@@H](O)COCc4ccco4)[C@@H]3CC[C@H]2C1=O reads -0.307

Reading of composite z-score for CC(C)=CCCC(C)=CCON=C1[C@H]2CCn3c(=O)n(Cc4cc5c(cc4Cl)OCO5)c(=O)n3[C@H]2[C@H](O)[C@@H]2O[C@H]12 with Calmodulin-1 (Homo sapiens) (UniProt P0DP23): -0.591

Entry O=C1[C@H]2[C@H]3[C@H](O)[C@H](O)CC(=NO[C@@H]4O[C@H](CO)[C@@H](O)[C@H](O)[C@H]4O)[C@H]3CC[C@H]2C(=O)N1C1CCCCC1 ; assay system Calmodulin-1 (Homo sapiens) (UniProt P0DP23); composite z-score recorded at -0.0964
